B1: HDV Ribozyme (parent)
chain: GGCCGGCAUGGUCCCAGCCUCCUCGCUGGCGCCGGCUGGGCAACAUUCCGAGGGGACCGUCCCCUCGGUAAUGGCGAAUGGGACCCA

Variants of: B1
Assay name: self-cleavage, relative activity (ratio to wild type); higher = more cleavage; co-transcriptional
Endpoint name: self-cleavage

Observe how each entry below is paired with its result.
INSERT INTO assay_data (residue_change, reported_result) VALUES
  ('G17U C75G', 0.0594),
  ('U23G A42U', 0.0997),
  ('G1U A45G', 0.291),
  ('G74U A83G', 0.256),
  ('C33A A77C', 0.0707),
  ('A16G C58A', 0.762),
  ('U37G C58U', 0.0504),
  ('C14U G53A', 1.11),
  ('G6C C48G', 0.199),
  ('U12C G50A', 0.359);

INPUT: Return reported self-cleavage; argument: A56C A71G
OUTPUT: 0.98

INPUT: Return reported self-cleavage; argument: C4U G54C
OUTPUT: 0.795

INPUT: Return reported self-cleavage; argument: G11C C64A
OUTPUT: 0.629

INPUT: Return reported self-cleavage; argument: C13U U60G
OUTPUT: 0.831
